# log10(Kd) annotations
Target Entity: T1, HCoV-OC43 nucleocapsid (N) protein, 2X-StrepTag tagged (HCoV-OC43, UniProt P33469 1-448)
T1 sequence: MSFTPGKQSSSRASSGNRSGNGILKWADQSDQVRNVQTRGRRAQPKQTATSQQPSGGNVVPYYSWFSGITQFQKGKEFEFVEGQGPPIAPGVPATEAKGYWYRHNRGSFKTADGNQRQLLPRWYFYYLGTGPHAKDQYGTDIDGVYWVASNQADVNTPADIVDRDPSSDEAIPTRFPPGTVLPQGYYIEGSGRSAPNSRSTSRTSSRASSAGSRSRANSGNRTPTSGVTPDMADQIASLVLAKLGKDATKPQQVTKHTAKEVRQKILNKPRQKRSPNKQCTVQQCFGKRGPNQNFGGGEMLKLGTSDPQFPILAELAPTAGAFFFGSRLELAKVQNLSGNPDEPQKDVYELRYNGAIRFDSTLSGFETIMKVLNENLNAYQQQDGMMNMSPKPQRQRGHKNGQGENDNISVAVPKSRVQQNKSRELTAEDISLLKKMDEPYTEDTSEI
Test Method Notes: BLI
Observable: log10(Kd) (log10 of the value in nM)

Binder: CXCL13 (ligand) VLEVYYTSLRCRCVQESSVFIPRRFIDRIQILPRGNGCPRKEIIVWKKNKSIVCVDPQAEWIQRMMEVLRKRSSSTLPVPVFKRKIP
log10(Kd): 2.15
//
Binder: CCL5 (ligand) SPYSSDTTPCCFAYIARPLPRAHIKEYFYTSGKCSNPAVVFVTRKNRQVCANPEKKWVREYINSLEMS
log10(Kd): 4.75
//
Binder: CCL25 (ligand) QGVFEDCCLAYHYPIGWAVLRRAWTYRIQEVSGSCNLPAAIFYLPKRHRKVCGNPKSREVQRAMKLLDARNKVFAKLHHNTQTFQAGPHAVKKLSSGNSKLSSSKFSNPISSSKRNVSLLISANSGL
log10(Kd): 2.79
//
Binder: CXCL14 (ligand) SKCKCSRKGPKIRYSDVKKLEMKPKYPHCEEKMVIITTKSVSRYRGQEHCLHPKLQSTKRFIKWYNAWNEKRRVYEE
log10(Kd): 2.76
//
Binder: CXCL9 (ligand) TPVVRKGRCSCISTNQGTIHLQSLKDLKQFAPSPSCEKIEIIATLKNGVQTCLNPDSADVKELIKKWEKQVSQKKKQKNGKKHQKKKVLKVRKSQRSRQKKTT
log10(Kd): 1.46
